Assayed Target: human Hsc70 (Homo sapiens, UniProt P11142)
Construct: made in house; host or cells: E. coli
Sequence (P11142 whole entry): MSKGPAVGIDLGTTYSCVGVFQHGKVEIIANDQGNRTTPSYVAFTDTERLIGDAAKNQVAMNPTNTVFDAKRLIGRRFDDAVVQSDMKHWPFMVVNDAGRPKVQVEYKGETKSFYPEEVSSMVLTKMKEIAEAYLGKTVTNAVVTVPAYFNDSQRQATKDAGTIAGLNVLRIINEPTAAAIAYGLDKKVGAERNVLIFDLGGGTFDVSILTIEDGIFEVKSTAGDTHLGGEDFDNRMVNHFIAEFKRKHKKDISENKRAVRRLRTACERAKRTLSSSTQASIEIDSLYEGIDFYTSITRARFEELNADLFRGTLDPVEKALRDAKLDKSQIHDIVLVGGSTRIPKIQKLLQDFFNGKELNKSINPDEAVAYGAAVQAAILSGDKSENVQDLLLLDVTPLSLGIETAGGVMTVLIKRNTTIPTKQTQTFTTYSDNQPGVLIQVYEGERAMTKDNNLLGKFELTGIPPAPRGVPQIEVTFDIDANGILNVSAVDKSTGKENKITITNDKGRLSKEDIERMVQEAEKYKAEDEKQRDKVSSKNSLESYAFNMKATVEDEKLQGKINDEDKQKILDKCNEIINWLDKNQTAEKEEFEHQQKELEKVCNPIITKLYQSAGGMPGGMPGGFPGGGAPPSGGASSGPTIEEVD
Experiment Description: Percent complexation of peptides with Hsc70 by size exclusion chromatography
Assay type: binding
Conditions: peptide:Hsc70 molar ratio 0.25:1; 60 minutes at 30° C.; SEC, 214 nm
For each of the sequences below, state its Percent complexation of peptides with Hsc70, 0.25:1.
Quick note: give the figure in %, leave out the unit.

Look up Percent complexation of peptides with Hsc70, 0.25:1 for this sequence: FFRKNWLRLKW [PEP011] 31.2

Repeat for the following sequence: FFRKQWLRLTW [PEP014] 29.3

Now give it for FFRKNWIRITW [PEP013] too. 25.6

Likewise for FFRKFWLRLTW [PEP008] ? 24.4

Quick one: FFRKNWLKLTW [PEP012] 29.9

Here is the next sequence: FFRKNWLRLTW [PEP006] 25.4

Consider next the sequence FFRKNLLRLTW [PEP155] in the same way. 22.5

Same question, FRNWLRLTW [PEP028] this time 24.0

// repeat for FFRKNWLKLRW [PEP057] and report 24.9

Again, but for FFRKNRLLLTG [PEP002] 19.2

Same question for FFRKNFLRLTF [PEP027] please. 19.1

FFRKNWLRLFW [PEP010] ? 19.1

Entry FFRKNRLWLTG [PEP005] please 16.0

What do you have for FFRKNWLKLKW [PEP055] ? 24.1

Cool, now FFRKNWLRLLW [PEP009] 32.8

What about FFRKNLLRLTG [PEP001, reference compound] ? 23.4

---

Assayed Target: human Hsc70 (Homo sapiens)
Construct: made in house; host or cells: E. coli
Experiment Description: Percent complexation of peptides with Hsc70 by size exclusion chromatography
Format: binding
Conditions: peptide:Hsc70 molar ratio 2:1; 60 minutes at 30° C.; SEC, 214 nm
Method: In a separate experiment, further variants of the peptide NLLRLTG (SEQ ID NO: 70) were generated and the ability of these peptides to form a peptide-Hsc70 complex was analyzed. […] To evaluate the quantity of the complex in the solution, 20 μl (10 μg) of the sample was loaded on a size exclusion chromatography column TSKgel SuperSW3000 (Tosoh Bioscience) at a flow rate of 0.2 ml/min with 1×PBS as a running buffer. The data was collected by measuring the absorbance at 214 nm. […]
Would you mind telling me the reported Percent complexation of peptides with Hsc70, 2:1 of each entry?
Field: numeric (%). Do not append units.

Item FFRKNWLRLLW [PEP009] has what recorded Percent complexation of peptides with Hsc70, 2:1? 85.3

Repeat with FFRKNLLRWTG [PEP004] 62.5

Param item: FFRKFWLRLTW [PEP008] 79.1

---

Assayed Target: human Hsc70 (Homo sapiens, UniProt P11142)
Construct: made in house; host or cells: E. coli
Experiment Description: Percent complexation of peptides with Hsc70 by size exclusion chromatography
Format: binding
Conditions: peptide:Hsc70 molar ratio 2:1; 60 minutes at 30° C.; SEC, 214 nm
Can you tell me Percent complexation of peptides with Hsc70, 2:1 for the items I'm about to list?
The reply should be a number in %, with the unit left off.

So what Percent complexation of peptides with Hsc70, 2:1 did FFRKNWLLLTW [PEP003] get with human Hsc70 (Homo sapiens, UniProt P11142)? 81.3

And then FFRKNWLKLWK [PEP058] , what is it? 78.8

// query: FFRKNWIRITW [PEP013] 81.9

// query: FFRKNWLRLFW [PEP010] 79.3
